Catalogue of AUC(0-t) values
METHOD_SUMMARY: Rat PK study (IV 1 mg/kg and PO 5 mg/kg)
Format: in vivo, male SD rats
CONDITION_DESCRIPTION: male, SD, rat, plasma, 1 mg/kg; IV, dose 1 mpk; read-out: IV AUC 0->t
// note: answer is a bare numeric in ng·h/mL

Some solved entries appear below for comparison.
                                   molecule  measured_property  endpoint_unit  numeric_value
0  O=C(Nc1ccc(-c2cc3cc(F)c(-c4nnn[nH]4)cc3n2C2CCC2)cc1)C(=O)Nc1ccc(N2CCC(CO)CC2)cc1           AUC(0-t)        ng·h/mL           2840
1  Cn1c(-c2cccc(NC(=O)C(=O)Nc3ccc(-c4ccsc4)cc3)c2)c(I)c2cc(C(=O)O)c(O)cc21 [Example 11a-1, reference compound]           AUC(0-t)        ng·h/mL           4230

--- query ---
For "CC1(n2c(-c3ccc(NC(=O)C(=O)Nc4ccc(N5CCC6(CCOC6)CC5)cc4)cc3)cc3cc(F)c(-c4nnn[nH]4)cc32)CCC1" the molecule record lists AUC(0-t) as 1380

----------
Below, each entry is listed with its recorded pIC50.
ASSAY_TARGET: LMWPTP (Homo sapiens)
Sequence (P24666 1-158): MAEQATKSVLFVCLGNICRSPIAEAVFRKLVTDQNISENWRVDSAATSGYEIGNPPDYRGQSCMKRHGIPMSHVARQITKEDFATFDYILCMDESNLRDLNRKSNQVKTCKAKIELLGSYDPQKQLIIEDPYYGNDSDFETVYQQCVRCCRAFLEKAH
Lab note — pIC50 values are minus log10 of concentrations in M.

                                   compound  measured_property  numeric_value
0  Cn1c(-c2cccc(NC(=O)C(=O)Nc3ccc(-c4ccsc4)cc3)c2)c(I)c2cc(C(=O)O)c(O)cc21 [Example 11a-1, reference compound]              pIC50           5.63
1  O=C(Nc1ccc(-c2cc3cc(F)c(-c4nnn[nH]4)cc3n2C2CCC2)cc1)C(=O)Nc1ccc(N2CCOCC2)cc1              pIC50           5.96

Given the compound "O=C(Nc1ccc(-c2oc3cc(F)c(-c4nnn[nH]4)cc3c2C2CCC2)cc1)C(=O)Nc1ccc(N2CCC3(CCOC3)CC2)cc1" and test system LMWPTP (Homo sapiens), the measured pIC50 is 5.65

I looked up "CC1(n2c(-c3ccc(NC(=O)C(=O)Nc4ccc(N5CCC6(CCOC6)CC5)cc4)cc3)cc3cc(F)c(-c4nnn[nH]4)cc32)CCC1" and its pIC50 for LMWPTP (Homo sapiens) was 6.43

----------
ASSAY_TARGET: LMWPTP (Homo sapiens, UniProt P24666)
Construct: made in house; host or cells: E. coli
METHOD_SUMMARY: Tyrosine phosphatase selectivity (pNPP substrate), LMWPTP
Type: biochemical
CONDITION_DESCRIPTION: selectivity ratio LMPTP* over SHP2
Protocol: This experiment evaluated the selectivity of the disclosed compounds against tyrosine phosphatases, including SHP1, HePTP, Laforin, LMWPTP, LYP, PTP1B, PRL2, SSU72, VHR, FAP1, STEP, CDC14A, CD45, MEG2, and PP5, all expressed and purified from E. coli. Phosphatase activity was measured using p-nitrophenyl phosphate (pNPP) (Fisher Scientific) as the substrate in 50 mM 3,3-dimethylglutaric acid buffer (pH 7.0, containing 1 mM EDTA), with ionic strength adjusted to 0.15 M with NaCl. […]
Listing: IC50PTP/IC50SHP2 LMPTP* of selected compounds

Below, 6 compounds whose answers are already recorded.
>>> df
                                   compound                           assay_target  result
0  O=C(Nc1ccc(-c2ccsc2)cc1)C(=O)Nc1ccc(-c2cc3cc(F)c(-c4nnn[nH]4)cc3n2C2CCC2)cc1  LMWPTP (Homo sapiens, UniProt P24666)   689.7
1  O=C(Nc1ccc(-c2ccsc2)cc1)C(=O)Nc1ccc(-c2cc3cc(F)c(-c4nnn[nH]4)nc3n2C2CCC2)cc1  LMWPTP (Homo sapiens, UniProt P24666)   740.7
2  O=C(Nc1ccc(-c2ccsc2)cc1)C(=O)Nc1ccc(-c2cc3cnc(-c4nnn[nH]4)nc3n2C2CCC2)cc1  LMWPTP (Homo sapiens, UniProt P24666)   769.2
3  O=C(Nc1ccc(-c2cc3cc(F)c(-c4nnn[nH]4)cc3n2C2CCC2)cc1)C(=O)Nc1ccc(N2CCOCC2)cc1  LMWPTP (Homo sapiens, UniProt P24666)    17.3
4  O=C(Nc1ccc(-c2cc3cc(F)c(-c4nnn[nH]4)cc3n2C2CCC2)cc1)C(=O)Nc1ccc(N2CC3COCC3C2)cc1 (stereo not shown)  LMWPTP (Homo sapiens, UniProt P24666)    29.5
5  O=C(Nc1ccc(-c2ccsc2)cc1)C(=O)Nc1ccc(-c2cc3ccc(-c4nnn[nH]4)nc3n2C2CCC2)cc1  LMWPTP (Homo sapiens, UniProt P24666)   339.0

Recorded IC50PTP/IC50SHP2 LMPTP* (compound "O=C(Nc1ccc(-c2cc3cc(F)c(-c4nnn[nH]4)cc3n2C2CCC2)cc1)C(=O)Nc1ccc(N2CCC3(CCOC3)CC2)cc1" ): 40.2
